Molecular target: rhCD19 (recombinant human CD19, extracellular domain) (human, UniProt P15391 20-291)
Sequence (P15391 20-291): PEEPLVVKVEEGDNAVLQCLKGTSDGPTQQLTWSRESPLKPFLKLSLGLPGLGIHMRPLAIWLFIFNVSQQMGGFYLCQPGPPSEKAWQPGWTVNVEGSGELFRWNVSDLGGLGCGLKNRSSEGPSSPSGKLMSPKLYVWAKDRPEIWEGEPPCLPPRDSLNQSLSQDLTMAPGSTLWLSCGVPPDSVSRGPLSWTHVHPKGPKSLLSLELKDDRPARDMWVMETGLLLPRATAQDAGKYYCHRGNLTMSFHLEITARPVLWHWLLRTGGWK
Test: BLI; 2.5-100 nM aptamer; BLI: running buffer not stated (tips prehydrated in PBS), temperature not stated; cell binding: serum-free medium, 37 C, 30 min, with poly(I) 0.1 ug/uL (qPCR) or tRNA 0.4 ug/uL plus 100 nM Ctrl Apt (FACS); pull-down lysis: 10 mM Tris-HCl pH 7.5, 200 mM NaCl, 5 mM EDTA, 0.1% Triton X-100
Conditions: protein: recombinant
measurement label: pKd
Convention used: pKd is expressed as -log10 of the molar concentration.

What value of measured pKd is listed for UGAGCCCUGUUCGACAGGAGGCUCA (structured_RNA, 2'-fluoro pyrimidines) [B85.T2] ?
7.30

From: paper PMC8533794
